# Test system: T-Rex 293 cell line SC cells lacking increased expression of progesterone receptor isoform B protein
# assay info: Cellular growth inhibition, T-Rex 293 SC cells without doxycycline, Example 45
# Type: cell-based
# assay conditions: T-Rex 293 SC cells not exposed to doxycycline, 72 hours treatment, CellTiter-Glo 2.0
experimental endpoint: GI50

compound: CCNC(=O)C[C@@H]1N=C(c2ccc(N(C)C3CC(OC4CCN(c5ncc(C(=O)N[C@H]6C(C)(C)[C@H](Oc7ccc(C#N)c(Cl)c7)C6(C)C)cn5)CC4)C3)cc2)c2c(sc(C)c2C)-n2c(C)nnc21 (some centres unmarked)
GI50: < 500 nM

Q. What does the record list as GI50 for Cc1sc2c(c1C)C(c1ccc(C#CC3CC4(CCN(c5ncc(C(=O)N[C@H]6C(C)(C)[C@H](Oc7ccc(C#N)c(Cl)c7)C6(C)C)cn5)CC4)C3)cc1)=N[C@@H](Cc1ncco1)c1nnc(C)n1-2 ?
A. 500 to 1500 nM
